assay: yeast display, Sf9 membrane polyspecificity reagent, FACS + sequencing; frameworks hold sequencing errors
measuredParameter: polyreactivity (PSR sort gate)

Please review the following examples before continuing.
[[record]]
sequenceinput = "QVQLVESGGGLVQAGGSLRLSCAAYGSIFLYNALGGYIQAPGKEMELVADITSAGRTYYADSVKGRFTISRDNAKNTVYLQMNSLKPEDTAVYYCNKDYQYHFSWYGYWGQGTQVTVSS"
reported = "low polyreactivity"

[[record]]
sequenceinput = "QVQLVESGGGLVQAGGSLRLSCAASGSIFIVYAMGWYRQAPGKERELVAAISWSGGSTYYADSVKGRFTISRDNAKNTVYLQMNSLKPEDTAVYYCAAKYTLPFRDVKYYSWGQGTQVTVSS"
reported = "high polyreactivity"

[[record]]
sequenceinput = "QDQIVESGGGLVQAGGSLRLSCAASGSTFQANAMGWYRQAPGKERELVAAISRSGGSTYYADSVKGRFTISRDNAKNTVYLQMNSLKPEDTAVFYCAADYEYSGYGYWGQGTQVTVSS"
reported = "high polyreactivity"

[[record]]
sequenceinput = "QVQLVESVGGLDQAGGSLRLSCAASGRIIAWYPMGWYRQSPGKERELVAAISWNGGRTYYADSVKGRFTISRDNAKNTVYLQINSLKPEDTAVYYCAAGKTPQKYGGFNSWGQGTQVTVSS"
reported = "high polyreactivity"

[[record]]
sequenceinput = "QVQLVESGGGLVQAGGSLRLSCAASGRTFYAYAMGWYRQAPGKERELVAAITSGASTYYADSVKGRFTISRDNAKNTVYLQMNRLKPEDTAVYYCAKRVRYYKPGYDYWGQGTQVTVSS"
reported = "low polyreactivity"

[[record]]
sequenceinput = "QVQLVESGGGLVQAGGSLRLSCAASGRIFKYNAMGWYIQAPGKERELVAVITSGGSTYYADSVKGRFTISRDNEKNTVYLQMNSLKPDDTEVYYCAKKYYKVHKFDYWGQGTQVTVSS"
reported = "low polyreactivity"


Lookup: // returns reported polyreactivity (PSR sort gate) for input QVQLVESGGGLVQAGGSLRLSCAASGSIFRINVMGWYRQAPGKERELVAAISYSGGRTYYADSVKGRFTISRDNAKKTVYLQMNSLKPEDTAVYYCAATRSNFIYDYWGQGTQVTVSS
Found: high polyreactivity

Lookup: // returns reported polyreactivity (PSR sort gate) for input QVQLVESGGGLVQAGGSLRLSCAASGSIFGKYAMGWYRQAPGKERELVAAISGRGGGTYYADSVKGRFTISRDNAKNTVYLQMNSLKPEDTAVYYCNAYYSRLRYDYWGQGTQVTVSS
Found: high polyreactivity

Lookup: // returns reported polyreactivity (PSR sort gate) for input QVQLVVSGGGLVQAGGSLRLSCAASGYTFQGYAMGWYRQAPGKERELVAGISRSGGRTYYADSVKGRFTISRDNAKNTVYLQMNSLKPEDTAVYYCASTYPGAIRDYWGQGTQVTVSS
Found: high polyreactivity

Lookup: // returns reported polyreactivity (PSR sort gate) for input QVQLVESGGGLVQAGGSLRLSCAASGLIFFWYTMGWYRKAPGKERELVAAIDSGGSTYYADSVKGRFTISRDNAKNTVYLQMNSLKPEDTAVYYCNADPGWGIYDDYWVQGTQVTVSS
Found: high polyreactivity

Lookup: // returns reported polyreactivity (PSR sort gate) for input QVQLVESGGGLVQAGGSLRLSCAASGLIFIRYAMGWYRQAPGKERELVAAISWPGGNTYYADSVKGRFTISRDNAKNTVYLQMNSLKPEDTAVYYCAAVGTWQHRSYGYWGQGTQVTVSS
Found: high polyreactivity

Lookup: // returns reported polyreactivity (PSR sort gate) for input QVQLVESGGGLVQAGGSLRLSCAASGRTFGTNAMGWYRQAPGKERELVAAISRRGGSTYYADSVKGRFTISRDNAKNTVYLQMNSLKPEDTAVYYCAKTIGLKHEDEYWGQGTQVTVSS
Found: low polyreactivity

Lookup: // returns reported polyreactivity (PSR sort gate) for input QVQLVESGGGLVQAGGSLRLSRPASGFTYIYSVMGWYRQAPGKERELVAAINGRGDRKYYADSVKGRFTISRDNAKNTGYLQMNSLKPEDTAVYYCNARTHTWGYSAKFDYWGQGTQVTVSS
Found: high polyreactivity

Lookup: // returns reported polyreactivity (PSR sort gate) for input QVQLVESGGGFVQAGGSLRLSGAASGSIFYCNAMGWYRQAPGKDRELVAAISYSGGSTYYADSVKGRFTLSRDTAKNTVYLQMNSLKPEDTAVSDGAAGPITLRYLTIYYTFDYWGQGTQVTVSS
Found: high polyreactivity

Lookup: // returns reported polyreactivity (PSR sort gate) for input QVQLVESGGGLVQAGGSLRLSCAASGYTFYSNAMGWYRQAPGKERELVAVISRGGGTYYADSVKGRFTISRDNAKNTVYLQMNSLKPEDTAVYYCARRIGHGSRPYWLETWRYPYEYWGQGTQVTVSS
Found: low polyreactivity

Lookup: // returns reported polyreactivity (PSR sort gate) for input QVQLVESGGGLVQAGGSLRLSCAASGRIFRYYDMAWYTQAPGKEREFVAAITRSGAITYYADSVKGRFTKSRDNAKNTVYLQMNSLKPEDTAVYYCAARYWAKFGYWGQGTQVTVSS
Found: low polyreactivity

Lookup: // returns reported polyreactivity (PSR sort gate) for input QVQLVESGGGLVQAGGSLRLSCAASGSPFSRNAMGWYRPAPGKEREMVAAISYSGGSTYYADSVKGRFTISRDNAKNTVYLQLNSLKPEDTAVYYCNTYIVNYSGQEMVYWGQGTQVTVSS
Found: high polyreactivity

Lookup: // returns reported polyreactivity (PSR sort gate) for input QVQLVESGGRLVQAGGSLRLSSAASGRIFKKNAMGRYRQAPGKERELVAAISYRGGSTYYADSVKGRFTISRDNAKNSVYLQMNSLKPVDTAVYYCNVGSRGCWDASDYDYWGQGTQVTVSS
Found: high polyreactivity

Lookup: // returns reported polyreactivity (PSR sort gate) for input QVRLVESGGGLVQAGGSLRLSCAASGRIFQYYAMGWYRQAPGKERELVASITSGGGSTYYADSVKGRFTISRDNAKNTVYVQMNSLKPEDSAVYYCAVDIYNYSNVHYYYWGQGTQVTVSS
Found: low polyreactivity

Lookup: // returns reported polyreactivity (PSR sort gate) for input QVQLQESGGGLEQAGGSLRLSCAASGYIFPTAIKGWYRQAPGKERKLVAAINPGSNTYYADSVKGRFTFSRDNANNSVYLQMNSLKPEDAAVYYCGVSIWLVGTLDYWGQGTQVTVSS
Found: low polyreactivity

Lookup: // returns reported polyreactivity (PSR sort gate) for input QVQLVESGGGLVQAGGSLRLSCAASGSIFTNAMGWYRQAPGKERELVAAISSSGGSTYYADSVKGRFTISRDNAKNTVYLQMNSLKPDDTAVYYCAADHYGCRDFWGQGSQVTVSS
Found: low polyreactivity

----------
assay: yeast display, Sf9 membrane polyspecificity reagent, FACS + sequencing; frameworks hold sequencing errors
measuredParameter: polyreactivity (PSR sort gate)

Please review the following examples before continuing.
[[record]]
sequenceinput = "QVQLVESGRGLLQAGGSLRLSCAASGSIFYPYVMGWYRQAPGKERELVASISWRGGRTYYADSVKGRFTISRDNAKNTVYLQMNSMKPEDTAVYYCAKRTYDSFYGYYYWGQGTQVTVSS"
reported = "high polyreactivity"

[[record]]
sequenceinput = "QVQLQESGGGLVQAGGSLRLSCAASGPISRRSTMGWNRQAPGKERELVTAITRGTNTNYADSVKGRFTISRDNAKNTEYLQMNSLKPVDTAVYYCAAYGVLKPSRGDAVFHRYWGQGTQVTVSS"
reported = "low polyreactivity"

[[record]]
sequenceinput = "QVQHVESGGGLVQAGGSLRLSCAASGSTIILNAMGWYRQAPGKERELVATISSSDTSTYYADSVKGRFTISRDNANNTVYLQMNSLKPEDTAVYYCNADYYTTSYLQRVIHYGVEYDYWGQGTQVTVSS"
reported = "low polyreactivity"

[[record]]
sequenceinput = "QVQLVESGGGLVQAGGSLRLSCAASGSIFNYYAMGWYRQAPGKERELVAGITTSGGSTYYADSVKGRFTISRDNAKNTVYLQMISLKPEDTAVYYCAAYDYISSTYFLDDYWGQGTQVSVSS"
reported = "low polyreactivity"

[[record]]
sequenceinput = "QVQLVESGGGLVQAGGSLRLSCAASGSTFSQNAMGWYRQAPGKERELVAVISSSGGRTNYADSVKGRFTISRDNAKNTVYLQMNSLKPEDSAVYYCAKRLRVLYYYWGQGTQVTVSS"
reported = "high polyreactivity"


Lookup: // returns reported polyreactivity (PSR sort gate) for input QVQLVESGGGLVQAGGSLRLSCAASGRTFVYNVMGWYRQAPGKERELVAAISSGGSTNYADSVKGRFTISRDNGKNTVYVQMNSLKPEDTAVYYCNAGTLYYRYRWGHYYDSWGQGTQVTVSS
Found: low polyreactivity

Lookup: // returns reported polyreactivity (PSR sort gate) for input QVQLVESGGGLVQAGGSLRLSCAASGSTFYRYAMGWYRQAPGKERELVAAISSDGTTYYADSVKGRFTISRDNAKNTVYLQMNSLKPEDTAVYYCAKRGYYRSRRYDYWGQGTQVTVSS
Found: high polyreactivity

Lookup: // returns reported polyreactivity (PSR sort gate) for input QVQHVESGGGLVHAGCRLRLSCAASGRTFIKYAMGWYRQAPGTERELVAGISGGGASTYYADSVKGRFTISRDNAKNTVYLQMNSLKPEETAVYYFAKLSPRGRRYDYWGQGTQVTVSS
Found: high polyreactivity

Lookup: // returns reported polyreactivity (PSR sort gate) for input QVQLVESGGGLVQAGGSLRLSCAASGSTIRRYAMGWSRQAPGKERELVAAITRSGGSTYYADSVKGRFTISRDNAKNTVYLQMNSLKPEDTEVYYCAADTGTGLDWGQGTQVTVSS
Found: high polyreactivity

Lookup: // returns reported polyreactivity (PSR sort gate) for input QVQLVESGGRLVQAGGSLRLSCAASGITFLKYALGWYRQAPGKERELVAAISRRGGSTYYADSVKGRFTISRDNAMNTVYLEMNSLKPSDTAVYYCAARTVRGTWSQNDYCGQGTQVTVSS
Found: low polyreactivity

Lookup: // returns reported polyreactivity (PSR sort gate) for input QLQLVESGGGLVQAGGSLRLSCAASGRTFAIYAMGWYRQAPGKERELVAAIRKRGSITYYADSVKGRFTISRDNAKNTVYLQMNSLKPDATAVYYCAVDYWGQGTQVTVSS
Found: high polyreactivity
